# credit: PubChem BioAssay

test system: Plasmodium falciparum Sir2 (PF13_0152, Sir2A); assay: pfSir2 binders on small-molecule microarrays, primary screen, biochemical, small-molecule microarray, 635 nm fluorescence (AID 1098); details: small-molecule microarray binding, fluorescence 635 nm; higher = more signal;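 also: score merges spot fluorescence intensity with its signal-to-noise ratio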
Use 0.7 as the dividing line for composite z-score, with the line itself on the yes (1) side and lower values as no (0).

Task: Check this compound for composite z-score at or above 0.7: `C=CCN1C(=O)[C@@]2(Cc3ccccc31)N=C(c1ccc(OCCCO)cc1)O[C@H]2c1ccccc1`
Output: yes (1)

Task: Check this compound for composite z-score at or above 0.7: [N-]=[N+]=Nc1ccccc1[C@H]1OC(c2ccc(OCCCO)cc2)=N[C@@]1(CCS(=O)(=O)c1ccccc1)C(=O)NCC(O)CO (stereo partly specified)
Output: yes (1)

Task: Check this compound for composite z-score at or above 0.7: O=C1NC(=O)C2C1C=CC(C(O)c1cccs1)N2Nc1ccc(Cl)cc1Cl (stereo unspecified)
Output: yes (1)

Task: Check this compound for composite z-score at or above 0.7: `COc1ccc(/C=C/C=O)cc1`
Output: no (0)

Task: Check this compound for composite z-score at or above 0.7: `COCCOC(=O)N1C(=O)[C@@]2(c3cc(C#CCNC(N)=O)ccc31)[C@H](C(=O)Nc1nc3ccccc3s1)[C@H]1C(=O)O[C@H](c3ccccc3)[C@H](c3ccccc3)N1[C@@H]2c1ccc(OCCO)cc1`
Output: no (0)

Task: Check this compound for composite z-score at or above 0.7: `C=CCN1C(=O)[C@@]2(CC=C)N=C(c3ccc(OCCCO)cc3)O[C@H]2c2ccccc21`
Output: yes (1)

Task: Check this compound for composite z-score at or above 0.7: CC1CC/C=C\[C@H]2OC34C=CCN(C(C)(C)C)C(=O)[C@H]3N(C(C)CO)C(=O)[C@@H]4C2C(=O)O1 (stereo partly specified)
Output: no (0)

Task: Check this compound for composite z-score at or above 0.7: OCCCC1=CC(c2cccs2)N(Cc2cc3c(cc2Br)OCO3)CC1 (stereo unspecified)
Output: yes (1)

Task: Check this compound for composite z-score at or above 0.7: `C=CC(=C)[C@H]1Oc2ccccc2S(=O)(=O)N2CCC[C@@H]12`
Output: no (0)

Task: Check this compound for composite z-score at or above 0.7: `COC(=O)C(CC#Cc1ccc2c(c1)[C@]1(C(=O)N2)[C@H](C(=O)Nc2nc3ccccc3s2)[C@H]2C(=O)O[C@H](c3ccccc3)[C@H](c3ccccc3)N2[C@@H]1c1ccccc1OCCO)C(=O)OC`
Output: yes (1)

Task: Check this compound for composite z-score at or above 0.7: CC1CC/C=C\[C@H]2OC34C=CCN(Cc5ccccc5)C(=O)[C@H]3N(CCCO)C(=O)[C@@H]4C2C(=O)O1 (stereo partly specified)
Output: yes (1)

Task: Check this compound for composite z-score at or above 0.7: CN1C(=O)C2C=CC(C(O)C#Cc3ccccc3)N(N3CCCCC3)C2C1=O (stereo unspecified)
Output: yes (1)

Task: Check this compound for composite z-score at or above 0.7: `CNS(=O)(=O)c1ccc(C)cc1`
Output: no (0)

Task: Check this compound for composite z-score at or above 0.7: O=C(NCCN1CCOCC1)C1N=C(c2ccc(OCCCO)cc2)N(c2ccccc2)O1 (stereo unspecified)
Output: no (0)

Task: Check this compound for composite z-score at or above 0.7: `CC[C@@H]1C=C(C(=O)O)[C@H](c2ccc(Br)cc2)N1S(=O)(=O)c1ccc(C)cc1`
Output: no (0)

Task: Check this compound for composite z-score at or above 0.7: `COC(=O)C(CC#Cc1ccc2c(c1)[C@]1(C(=O)N2)[C@H](C(=O)Nc2nc3ccccc3s2)[C@H]2C(=O)O[C@H](c3ccccc3)[C@H](c3ccccc3)N2[C@@H]1c1ccc(O)cc1)C(=O)OC`
Output: yes (1)
